Test system: NCI-H2085
Assay: relative viability (nuclei count vs DMSO), 5 days (fraction); higher = more cells survive
Conditions: first compound 0.253 µM
Assign a class from recorded relative viability; defined classes: Low: < 0.5; Mid: ≥ 0.5 and < 0.8; High: ≥ 0.8

[
  {
    "molecule": "O=c1[nH]c2ccccc2n1C1CCN(CCCC(c2ccc(F)cc2)c2ccc(F)cc2)CC1 [Pimozide] + Nc1ncn([C@H]2C[C@H](O)[C@@H](CO)O2)c(=O)n1 [Decitabine] (partner 2 µM)",
    "category": "Mid"
  },
  {
    "molecule": "O=c1[nH]c2ccccc2n1C1CCN(CCCC(c2ccc(F)cc2)c2ccc(F)cc2)CC1 [Pimozide] + Cc1nc(NC(=O)N2CCC[C@H]2C(N)=O)sc1-c1ccnc(C(C)(C)C(F)(F)F)c1 [Alpelisib] (partner 2 µM)",
    "category": "High"
  },
  {
    "molecule": "Cc1cnc(-c2cnc(NCCNc3ccc(C#N)cn3)nc2-c2ccc(Cl)cc2Cl)[nH]1 + CC1(C)CCC(c2ccc(Cl)cc2)=C(CN2CCN(c3ccc(C(=O)NS(=O)(=O)c4ccc(N[C@H](CCN5CCOCC5)CSc5ccccc5)c(S(=O)(=O)C(F)(F)F)c4)cc3)CC2)C1 [Navitoclax] (partner 0.5 µM)",
    "category": "High"
  },
  {
    "molecule": "O=c1[nH]c2ccccc2n1C1CCN(CCCC(c2ccc(F)cc2)c2ccc(F)cc2)CC1 [Pimozide] + O=C(CCCCCCC(=O)Nc1ccccc1)NO [Vorinostat] (partner 1 µM)",
    "category": "High"
  },
  {
    "molecule": "Cc1cnc(-c2cnc(NCCNc3ccc(C#N)cn3)nc2-c2ccc(Cl)cc2Cl)[nH]1 + Cc1nc(NC(=O)N2CCC[C@H]2C(N)=O)sc1-c1ccnc(C(C)(C)C(F)(F)F)c1 [Alpelisib] (partner 2 µM)",
    "category": "High"
  },
  {
    "molecule": "Cc1cnc(-c2cnc(NCCNc3ccc(C#N)cn3)nc2-c2ccc(Cl)cc2Cl)[nH]1 + N=C(N)NC(=N)NCCc1ccccc1 [Phenformin] (partner 250 µM)",
    "category": "Mid"
  },
  {
    "molecule": "O=c1[nH]c2ccccc2n1C1CCN(CCCC(c2ccc(F)cc2)c2ccc(F)cc2)CC1 [Pimozide] + CCNC(=O)c1noc(-c2cc(C(C)C)c(O)cc2O)c1-c1ccc(CN2CCOCC2)cc1 [Luminespib] (partner 0.01 µM)",
    "category": "Low"
  },
  {
    "molecule": "O=c1[nH]c2ccccc2n1C1CCN(CCCC(c2ccc(F)cc2)c2ccc(F)cc2)CC1 [Pimozide] + CC(=O)c1c(C)c2cnc(Nc3ccc(N4CCNCC4)cn3)nc2n(C2CCCC2)c1=O [Palbociclib] (partner 0.5 µM)",
    "category": "Low"
  },
  {
    "molecule": "Cc1cnc(-c2cnc(NCCNc3ccc(C#N)cn3)nc2-c2ccc(Cl)cc2Cl)[nH]1 + CC(=O)Nc1cccc(-n2c(=O)n(C3CC3)c(=O)c3c(Nc4ccc(I)cc4F)n(C)c(=O)c(C)c32)c1 [Trametinib] (partner 0.02 µM)",
    "category": "Mid"
  },
  {
    "molecule": "Cc1cnc(-c2cnc(NCCNc3ccc(C#N)cn3)nc2-c2ccc(Cl)cc2Cl)[nH]1 + O=C(CCCCCCC(=O)Nc1ccccc1)NO [Vorinostat] (partner 1 µM)",
    "category": "Mid"
  },
  {
    "molecule": "O=c1[nH]c2ccccc2n1C1CCN(CCCC(c2ccc(F)cc2)c2ccc(F)cc2)CC1 [Pimozide] + N=C(N)NC(=N)NCCc1ccccc1 [Phenformin] (partner 250 µM)",
    "category": "Mid"
  },
  {
    "molecule": "O=c1[nH]c2ccccc2n1C1CCN(CCCC(c2ccc(F)cc2)c2ccc(F)cc2)CC1 [Pimozide] + CS(=O)(=O)N1CCN(Cc2cc3nc(-c4cccc5[nH]ncc45)nc(N4CCOCC4)c3s2)CC1 [Pictilisib] (partner 1 µM)",
    "category": "Mid"
  }
]
